Ref: patent US20080293795A1

# experimental_system: Recombinant Human Poly(ADP-Ribose) Polymerase (PARP) (Homo sapiens, UniProt P09874)
# Sequence (P09874 whole entry): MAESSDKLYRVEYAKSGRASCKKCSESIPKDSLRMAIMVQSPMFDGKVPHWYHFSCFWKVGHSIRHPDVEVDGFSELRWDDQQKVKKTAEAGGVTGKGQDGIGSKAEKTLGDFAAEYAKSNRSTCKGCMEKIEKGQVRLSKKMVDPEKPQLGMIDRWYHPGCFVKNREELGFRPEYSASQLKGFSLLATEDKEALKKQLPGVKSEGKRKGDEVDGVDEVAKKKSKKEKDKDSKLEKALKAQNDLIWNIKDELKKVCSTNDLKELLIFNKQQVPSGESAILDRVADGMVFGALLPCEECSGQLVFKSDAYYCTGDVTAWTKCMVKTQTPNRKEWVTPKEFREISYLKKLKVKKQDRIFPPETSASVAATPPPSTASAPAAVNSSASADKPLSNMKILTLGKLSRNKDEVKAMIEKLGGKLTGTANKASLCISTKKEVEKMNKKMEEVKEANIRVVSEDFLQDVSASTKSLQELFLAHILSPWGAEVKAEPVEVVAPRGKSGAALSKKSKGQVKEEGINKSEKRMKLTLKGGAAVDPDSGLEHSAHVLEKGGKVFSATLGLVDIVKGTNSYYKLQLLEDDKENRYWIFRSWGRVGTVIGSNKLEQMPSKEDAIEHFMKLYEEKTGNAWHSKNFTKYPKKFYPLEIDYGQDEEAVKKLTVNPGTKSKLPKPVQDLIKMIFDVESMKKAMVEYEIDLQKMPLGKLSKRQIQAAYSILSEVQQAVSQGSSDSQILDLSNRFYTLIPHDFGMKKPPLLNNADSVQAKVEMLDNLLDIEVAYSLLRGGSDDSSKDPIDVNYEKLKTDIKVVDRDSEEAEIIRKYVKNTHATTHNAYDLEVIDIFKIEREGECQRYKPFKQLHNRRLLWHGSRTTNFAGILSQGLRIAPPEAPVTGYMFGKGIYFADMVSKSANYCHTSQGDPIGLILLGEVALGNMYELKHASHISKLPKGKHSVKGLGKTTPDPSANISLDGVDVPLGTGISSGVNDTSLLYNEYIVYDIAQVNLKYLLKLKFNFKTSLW
# assay_overview: PARP1 inhibition assay ([3H]-NAD+, biotinylated histone H1, FlashPlate/SPA)
# test_parameters: from inhibition curves at various substrate concentrations
Listed below: log10 Ki values for each entry.
Note: values are log10 of Ki expressed in nM.

compound: CN(C)S(=O)(=O)N1CC(C)(c2nc3c(C(N)=O)cccc3[nH]2)C1
experimental_system: Recombinant Human Poly(ADP-Ribose) Polymerase (PARP) (Homo sapiens, UniProt P09874)
experimental_value: 0.85
--
compound: NC(=O)c1cccc2[nH]c(C3CN(CC4CC4)C3)nc12
experimental_system: Recombinant Human Poly(ADP-Ribose) Polymerase (PARP) (Homo sapiens, UniProt P09874)
experimental_value: 1.28
--
compound: CC1(c2nc3c(C(N)=O)cccc3[nH]2)CCN(C2CCCCC2)C1 (centres unmarked)
experimental_system: Recombinant Human Poly(ADP-Ribose) Polymerase (PARP) (Homo sapiens, UniProt P09874)
experimental_value: 0.76
--
compound: CCN1CCC[C@H]1c1nc2c(C(N)=O)cccc2[nH]1
experimental_system: Recombinant Human Poly(ADP-Ribose) Polymerase (PARP) (Homo sapiens, UniProt P09874)
experimental_value: 1.69
--
compound: CC(CCc1ccccc1)N1CCC(C)(c2nc3c(C(N)=O)cccc3[nH]2)C1 (centres unmarked)
experimental_system: Recombinant Human Poly(ADP-Ribose) Polymerase (PARP) (Homo sapiens, UniProt P09874)
experimental_value: 1.08
--
compound: NC(=O)c1cccc2[nH]c(C3CN(C4CCC4)C3)nc12
experimental_system: Recombinant Human Poly(ADP-Ribose) Polymerase (PARP) (Homo sapiens, UniProt P09874)
experimental_value: 1.21
--
compound: CCN1CCCC1(C)c1nc2c(C(N)=O)cccc2[nH]1 (centres unmarked)
experimental_system: Recombinant Human Poly(ADP-Ribose) Polymerase (PARP) (Homo sapiens, UniProt P09874)
experimental_value: 0.78
--
compound: CN(C)S(=O)(=O)N1CCC(C)(c2nc3c(C(N)=O)cccc3[nH]2)CC1
experimental_system: Recombinant Human Poly(ADP-Ribose) Polymerase (PARP) (Homo sapiens, UniProt P09874)
experimental_value: 0.94

// next entry
In: // log10 Ki lookup, key: CC1(c2nc3c(C(N)=O)cccc3[nH]2)CCN(C2CCC2)CC1
Out: 0.96
